Tested on: Saccharomyces cerevisiae growth inhibition, permissive control
METHOD SUMMARY: yeast lifespan-shortening chemical project counter-assay, dose-response inhibition of growth under permissive conditions (AID 850);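 note: growth read as optical density after one day of incubation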
Active and inactive are the calls of the source. The rule behind the calls is not given here.
Lab note: assign the record to one of active, inactive

Consider the worked cases shown below.
Cn1c(SCC(=O)Nc2ccccc2)nc(O)cc1=O | active
O=C(CCSc1nnc(-c2ccncc2)o1)Nc1ccc(Cl)cc1 | active
CCOC(=O)c1c(NC(=O)C(C)Sc2cccc[n+]2[O-])sc2c1CCN(Cc1ccccc1)C2 (centres undefined) | active

Recorded call for Cc1cccnc1Nc1nc(-c2ccccn2)cs1 ?
active

Recorded call for CNc1nnc(-c2cc3cc(Cl)ccc3oc2=O)s1 ?
inactive

====

Test system: Saccharomyces cerevisiae growth inhibition, permissive control
METHOD SUMMARY: yeast lifespan-shortening chemical project counter-assay, dose-response inhibition of growth under permissive conditions (AID 850);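 note: growth read as optical density after one day of incubation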
Activity calls are given as the source filed them. No rule for the calls is given here.
Lab note: assign the record to one of active, inactive

Consider the worked cases shown below.
Cc1ncc(CC(=O)n2cc(C(=O)c3cc(Cl)ccc3O)cn2)s1 | active
CCOCCCNC(=O)c1ccc(Br)cc1 | inactive
NC(=O)c1ccc(N=Cc2ccc([N+](=O)[O-])s2)cc1 | active
CCOC(=O)c1cnc(-n2nc(C)cc2C)nc1NCCc1ccccc1 | inactive

Recorded call for C/C(=N\Nc1ccc([N+](=O)[O-])cc1)c1ccc(N)cc1 ?
active

Recorded call for CN1CCN(C2=Cc3ccc(Cl)cc3Sc3ccc(F)cc32)CC1 ?
active

Recorded call for CCCc1cc(-c2n[nH]c(=S)n2C(C)c2ccccc2)cs1 (stereo not given) ?
inactive

Recorded call for Cc1csc(NC(=O)Cc2coc3cc(C)c(C(C)C)cc23)n1 ?
inactive

Recorded call for CC(C)(C)c1ccc(-c2nc(-c3ccncc3)no2)cc1 ?
active

Recorded call for COc1ccccc1OCCN1CSC(=S)N(C)C1 ?
active

Recorded call for CCOC(=O)c1c(N)sc(C(O)(C(F)(F)F)C(F)(F)F)c1-c1ccc(Cl)cc1 ?
inactive

Recorded call for Oc1ccc(COCc2ccccc2)c2cccnc12 ?
active

====

METHOD SUMMARY: yeast lifespan-shortening chemical project counter-assay, dose-response inhibition of growth under permissive conditions (AID 850);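 note: growth read as optical density after one day of incubation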
RUN PARAMETERS: Saccharomyces cerevisiae growth inhibition, permissive control; measured here: maximum growth inhibition; at 12.5 µM; stronger effect = higher value
Each entry below carries its reported inhibition.
Answer with a number only, understood to be in %.

Name the recorded inhibition of the compound listed here: O=C(OCn1ncc(Br)c(Br)c1=O)c1ccc(F)cc1
78.7

Name the recorded inhibition of the compound listed here: CCC1CCCCN1C(=O)CSc1nnc(-c2ccc(OC)cc2)o1 (stereo unspecified)
24.1

Name the recorded inhibition of the compound listed here: O=Cc1c(Sc2ccccc2)nc2ccccn2c1=O
2.01

====

METHOD SUMMARY: yeast lifespan-shortening chemical project counter-assay, dose-response inhibition of growth under permissive conditions (AID 850);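 note: growth read as optical density after one day of incubation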
RUN PARAMETERS: Saccharomyces cerevisiae growth inhibition, permissive control; measured here: maximum growth inhibition; at 12.5 µM; stronger effect = higher value
Each entry below carries its reported inhibition.
Write down the value, and be sure its unit follows.

O=[N+]([O-])c1ccccc1-c1cc(-c2cc(Cl)ccc2O)n[nH]1 | 16.3%

Moving on to the next compound.
Name the recorded inhibition of the compound listed here: O=C(Nc1nc(-c2ccccn2)cs1)c1ccc(Cl)s1
91.4%

Every entry's value here was drawn from PubChem BioAssay AID850.
